# subject of test: HLA-A*02:01
# method notes: IEDB peptide-MHC binding, purified MHC/competitive/fluorescence; filed as Kd, often an IC50 or EC50 that approximates it; bounds were set here for any values at or beyond the usual limits of such assays
# condition info: source organism: Giardia intestinalis ATCC 50581
parameter: Kd (nM)
The reply should be a number in nM, with the unit left off.

Query: Name the recorded Kd for GLYLYRFHV .
Reply: 1.4

---

# subject of test: HLA-A*31:01
# method notes: IEDB peptide-MHC binding, purified MHC/direct/fluorescence; filed as Kd, often an IC50 or EC50 that approximates it; bounds were set here for any values at or beyond the usual limits of such assays
# condition info: source organism: Influenza A virus (A/chicken/Hubei/wk/1997(H5N1))
parameter: Kd

Query: Tell me reported Kd for NPALRMKWM , tested with HLA-A*31:01.
Reply: ≥ 20 µM

---

# subject of test: HLA-A*02:01
# method notes: IEDB peptide-MHC binding, purified MHC/competitive/radioactivity; filed as Kd, often an IC50 or EC50 that approximates it; bounds were set here for any values at or beyond the usual limits of such assays
# condition info: source organism: Dengue virus 4 Philippines/H241/1956
Would you kindly list pKd for each of these sequences?
Lab note — pKd values are minus log10 of concentrations in M.

Query: Name the recorded pKd for SIILEFFLMV .
Reply: 8.01

Query: Name the recorded pKd for ILGAQALPV .
Reply: 7.49

Query: Name the recorded pKd for LILGAQALPV .
Reply: 7.26

---

# subject of test: HLA-A*11:01
# method notes: IEDB peptide-MHC binding, purified MHC/competitive/fluorescence; filed as Kd, often an IC50 or EC50 that approximates it; bounds were set here for any values at or beyond the usual limits of such assays
# condition info: source organism: Pseudomonas sp. MIS38
parameter: Kd

Query: Name the recorded Kd for YMLKDSAPT .
Reply: ≥ 20 µM

---

# subject of test: HLA-B*35:01
# method notes: IEDB peptide-MHC binding, purified MHC/competitive/fluorescence; bounds were set here for any values at or beyond the usual limits of such assays
# condition info: source organism: Gorilla gorilla gorilla
parameter: IC50

Query: Name the recorded IC50 for RYSHWTKL .
Reply: ≥ 20 µM

---

# subject of test: HLA-A*01:01
# method notes: IEDB peptide-MHC binding, purified MHC/competitive/radioactivity; filed as Kd, often an IC50 or EC50 that approximates it; bounds were set here for any values at or beyond the usual limits of such assays
# condition info: source organism: Mammarenavirus whitewaterense
parameter: Kd (nM)
The reply should be a number in nM, with the unit left off.

Query: Name the recorded Kd for ATGTDMPGGY .
Reply: 33

---

# subject of test: HLA-A*24:02
# method notes: IEDB peptide-MHC binding, purified MHC/direct/fluorescence; filed as Kd, often an IC50 or EC50 that approximates it; bounds were set here for any values at or beyond the usual limits of such assays
# condition info: source organism: Vibrio vulnificus
parameter: Kd

Query: Name the recorded Kd for GLKELGDWV .
Reply: ≥ 20 µM

---

# subject of test: HLA-B*08:01
# method notes: IEDB peptide-MHC binding, purified MHC/direct/fluorescence; filed as Kd, often an IC50 or EC50 that approximates it; bounds were set here for any values at or beyond the usual limits of such assays
# condition info: source organism: Influenza A virus (A/mallard/NZ/1/97(H5N2))
parameter: Kd

Query: Name the recorded Kd for IAGFIEGGW .
Reply: ≥ 20 µM

---

# subject of test: HLA-A*03:01
# method notes: IEDB peptide-MHC binding, purified MHC/direct/fluorescence; filed as Kd, often an IC50 or EC50 that approximates it; bounds were set here for any values at or beyond the usual limits of such assays
# condition info: source organism: Sudan ebolavirus - Uganda (2000)
parameter: Kd
Please answer using the number first and the unit second.

Query: Name the recorded Kd for RVPTVFHKK .
Reply: 241 nM

---

# subject of test: HLA-A*02:01
# method notes: IEDB peptide-MHC binding, purified MHC/direct/fluorescence; filed as Kd, often an IC50 or EC50 that approximates it; bounds were set here for any values at or beyond the usual limits of such assays
# condition info: source organism: Vibrio vulnificus
parameter: Kd (nM)
The reply should be a number in nM, with the unit left off.

Query: Tell me reported Kd for GLKELGDWV , tested with HLA-A*02:01.
Reply: 637

---

# subject of test: HLA-A*02:12
# method notes: IEDB peptide-MHC binding, purified MHC/direct/fluorescence; filed as Kd, often an IC50 or EC50 that approximates it; bounds were set here for any values at or beyond the usual limits of such assays
# condition info: source organism: Salmonella enterica subsp. enterica serovar Typhimurium
parameter: Kd (nM)
The reply should be a number in nM, with the unit left off.

Query: Tell me reported Kd for QVNDVLHSV , tested with HLA-A*02:12.
Reply: 91

---

# subject of test: HLA-A*02:01
# method notes: IEDB peptide-MHC binding, purified MHC/direct/fluorescence; filed as Kd, often an IC50 or EC50 that approximates it; bounds were set here for any values at or beyond the usual limits of such assays
# condition info: source organism: Influenza A virus (A/equine/New York/1/1999(H3N8))
pKd: −log10 of the molar value.
parameter: pKd

Query: Name the recorded pKd for VAGGTSSVY .
Reply: ≤ 4.70

---

# subject of test: HLA-B*44:02
# method notes: IEDB peptide-MHC binding, purified MHC/direct/fluorescence; filed as Kd, often an IC50 or EC50 that approximates it; bounds were set here for any values at or beyond the usual limits of such assays
# condition info: source organism: Influenza A virus (A/mallard/NZ/1/97(H5N2))
parameter: Kd

Query: Name the recorded Kd for IAGFIEGGW .
Reply: ≥ 20 µM

---

# subject of test: HLA-A*29:02
# method notes: IEDB peptide-MHC binding, purified MHC/competitive/fluorescence; filed as Kd, often an IC50 or EC50 that approximates it; bounds were set here for any values at or beyond the usual limits of such assays
# condition info: source organism: Plasmodium yoelii yoelii
parameter: Kd (nM)
The reply should be a number in nM, with the unit left off.

Query: Name the recorded Kd for KPPRGVLLY .
Reply: 114

---

# subject of test: HLA-B*83:01
# method notes: IEDB peptide-MHC binding, purified MHC/competitive/fluorescence; filed as Kd, often an IC50 or EC50 that approximates it; bounds were set here for any values at or beyond the usual limits of such assays
# condition info: source organism: Escherichia coli F11
parameter: Kd

Query: Name the recorded Kd for MTYSHHACR .
Reply: ≥ 5 µM

---

# subject of test: HLA-B*35:01
# method notes: IEDB peptide-MHC binding, purified MHC/competitive/radioactivity; filed as Kd, often an IC50 or EC50 that approximates it; bounds were set here for any values at or beyond the usual limits of such assays
# condition info: source organism: Variola virus
parameter: Kd

Query: Tell me reported Kd for AKNPNRFVI , tested with HLA-B*35:01.
Reply: ≥ 77.4 µM

---

# subject of test: HLA-A*03:01
# method notes: IEDB peptide-MHC binding, purified MHC/competitive/radioactivity; filed as Kd, often an IC50 or EC50 that approximates it; bounds were set here for any values at or beyond the usual limits of such assays
# condition info: source organism: Lymphocytic choriomeningitis virus (strain Pasteur)
parameter: pKd
Lab note — pKd values are minus log10 of concentrations in M.

Query: Name the recorded pKd for TYLGPLNCK .
Reply: 6.32

---

# subject of test: HLA-A*31:01
# method notes: IEDB peptide-MHC binding, purified MHC/direct/fluorescence; filed as Kd, often an IC50 or EC50 that approximates it; bounds were set here for any values at or beyond the usual limits of such assays
# condition info: source organism: SARS-CoV1
parameter: Kd (µM)
The reply should be a number in µM, with the unit left off.

Query: Tell me reported Kd for KCYGVSATK , tested with HLA-A*31:01.
Reply: 3.52

---

# subject of test: HLA-A*03:01
# method notes: IEDB peptide-MHC binding, purified MHC/direct/fluorescence; filed as Kd, often an IC50 or EC50 that approximates it; bounds were set here for any values at or beyond the usual limits of such assays
# condition info: source organism: Influenza A virus (A/camel/Mongolia/1982(H1N1))
pKd: −log10 of the molar value.
parameter: pKd

Query: Name the recorded pKd for EKFFPSSSY .
Reply: ≤ 4.70

---

# subject of test: HLA-A*02:01
# method notes: IEDB peptide-MHC binding, purified MHC/direct/fluorescence; filed as Kd, often an IC50 or EC50 that approximates it; bounds were set here for any values at or beyond the usual limits of such assays
# condition info: source organism: Camelpox virus M-96
pKd: −log10 of the molar value.
parameter: pKd

Query: Name the recorded pKd for IHIPGDTLF .
Reply: ≤ 4.70

Query: Name the recorded pKd for SLFTEQAFY .
Reply: ≤ 4.70

---

# subject of test: HLA-B*27:05
# method notes: IEDB peptide-MHC binding, purified MHC/competitive/fluorescence; filed as Kd, often an IC50 or EC50 that approximates it; bounds were set here for any values at or beyond the usual limits of such assays
# condition info: source organism: Mycobacterium tuberculosis H37Ra
parameter: pKd
Lab note — pKd values are minus log10 of concentrations in M.

Query: Name the recorded pKd for LRAAIELPL .
Reply: 6.80

Taken from the Immune Epitope Database (IEDB).
